test system: UO-31 renal; assay: NCI tumour cell line growth inhibition, 48 h; in the data active = GI50 below about 0.43 µM; inactive = the rest
Classes used: true (1) = active, false (0) = inactive

[[record]]
compound = "CN1CCN(Cc2ccc(NC(=O)c3cncc(C#Cc4cnc(N)c5ccc(C#N)cc45)c3)cc2C(F)(F)F)CC1"
class = "true (1)"

[[record]]
compound = "O=C1c2cccc(NCCN=Cc3cc(O)ccc3O)c2C(=O)c2c(NCCN=Cc3cc(O)ccc3O)cccc21"
class = "false (0)"

[[record]]
compound = "CCCCC(=O)OCC1OC(n2cnc3c(=S)nc[nH]c32)C(OC(=O)CCCC)C1OC(=O)CCCC (stereo unspecified)"
class = "false (0)"

[[record]]
compound = "OCCNc1nc(NCCO)nc(Nc2ccc(C3=NN(c4cc(Cl)cc(Cl)c4)C(c4ccc(C(F)(F)F)cc4)C3)cc2)n1 (stereo unspecified)"
class = "false (0)"

[[record]]
compound = "N#Cc1ccc(C#Cc2ccccc2C#CCCCCO)cc1"
class = "false (0)"

[[record]]
compound = "Cc1ccc(CS/C(=C\\c2ccc([N+](=O)[O-])cc2)C(=O)c2ccc(F)cc2)cc1"
class = "false (0)"


====

tested on: HCT-116 colon; test: NCI tumour cell line growth inhibition, 48 h
observation.type: TGI

[[record]]
molecule = "Cc1ccc(-c2c(C#N)c(-c3ccccc3)n(NS(=O)(=O)c3ccccc3)c(=O)c2C#N)cc1"
assayed_target = "HCT-116 colon"
reported_measurement = "> 100 µM"

[[record]]
molecule = "CN(C)CCCOc1nc2c(c(=O)n(C)c(=O)n2C)n1C (tested in a mixture with another compound)"
assayed_target = "HCT-116 colon"
reported_measurement = "> 100 µM"

[[record]]
molecule = "CC1(O)CC(C(F)(F)F)(C(F)(F)F)OC1=O (configuration not stated)"
assayed_target = "HCT-116 colon"
reported_measurement = "> 10 µM"

[[record]]
molecule = "c1ccc(C2C3=C(Nc4ncnn42)c2ccccc2C3)cc1 (configuration not stated)"
assayed_target = "HCT-116 colon"
reported_measurement = "> 100 µM"

[[record]]
molecule = "NC(=O)N/N=C(\\Cc1nc2ccc(Cl)cc2[nH]c1=O)C(=O)Nc1ccc(Cl)cc1Cl"
assayed_target = "HCT-116 colon"
reported_measurement = "> 100 µM"

[[record]]
molecule = "O=C1OCc2c1cc1ccc(O)c(OC3OC(CO)C(O)C(O)C3O)c1c2-c1ccc2c(c1)OCO2 (configuration not stated)"
assayed_target = "HCT-116 colon"
reported_measurement = "> 100 µM"

[[record]]
molecule = "CC1OC(n2cc(F)c(=O)[nH]c2=O)CCC1O (configuration not stated)"
assayed_target = "HCT-116 colon"
reported_measurement = "> 100 µM"

[[record]]
molecule = "O=C(c1ccco1)c1nc2ccc(C(F)(F)F)cc2[n+]([O-])c1C(F)(F)F"
assayed_target = "HCT-116 colon"
reported_measurement = "> 100 µM"

[[record]]
molecule = "O=C1/C(=C/c2ccccc2)N=C(c2ccccc2)N1n1c(-c2ccccc2)nc2ccccc2c1=O"
assayed_target = "HCT-116 colon"
reported_measurement = "> 100 µM"

[[record]]
molecule = "CC1=C(CCCNS(C)(=O)=O)C2=C(C)C3(CC3)[C@@](C)(O)C(=O)C2=C1"
assayed_target = "HCT-116 colon"
reported_measurement = "> 100 µM"

[[record]]
molecule = "Cc1nc(-c2ccc([N+](=O)[O-])cc2)cn2c1nc1ccccc12"
assayed_target = "HCT-116 colon"
reported_measurement = "> 100 µM"

[[record]]
molecule = "CC1CCC2(C(=O)O)CCC3(C)C(=CCC4C5(C)CC(O)C(O)C(C)(CO)C5C(O)CC43C)C2C1C (configuration not stated)"
assayed_target = "HCT-116 colon"
reported_measurement = "> 24.3 µM"


// provenance: PubChem BioAssay (NCI)
